Field: log10(IC50). Provide a value for each of the molecules that follow.
SUBJECT_OF_TEST: human liver glycogen phosphorylase a (HLGPa) (Homo sapiens, UniProt P06737)
Construct: creating a full-length cDNA fused at the 5′ end to codons for methionine-glycine-alanine-histidine; 6xHis tag (leader Met-Gly-Ala-His6-Gly-Gly) (N); made in house; host or cells: E. coli (bacterial expression plasmid pTXK1007LTev)
Sequence (P06737 2-847 limits assumed): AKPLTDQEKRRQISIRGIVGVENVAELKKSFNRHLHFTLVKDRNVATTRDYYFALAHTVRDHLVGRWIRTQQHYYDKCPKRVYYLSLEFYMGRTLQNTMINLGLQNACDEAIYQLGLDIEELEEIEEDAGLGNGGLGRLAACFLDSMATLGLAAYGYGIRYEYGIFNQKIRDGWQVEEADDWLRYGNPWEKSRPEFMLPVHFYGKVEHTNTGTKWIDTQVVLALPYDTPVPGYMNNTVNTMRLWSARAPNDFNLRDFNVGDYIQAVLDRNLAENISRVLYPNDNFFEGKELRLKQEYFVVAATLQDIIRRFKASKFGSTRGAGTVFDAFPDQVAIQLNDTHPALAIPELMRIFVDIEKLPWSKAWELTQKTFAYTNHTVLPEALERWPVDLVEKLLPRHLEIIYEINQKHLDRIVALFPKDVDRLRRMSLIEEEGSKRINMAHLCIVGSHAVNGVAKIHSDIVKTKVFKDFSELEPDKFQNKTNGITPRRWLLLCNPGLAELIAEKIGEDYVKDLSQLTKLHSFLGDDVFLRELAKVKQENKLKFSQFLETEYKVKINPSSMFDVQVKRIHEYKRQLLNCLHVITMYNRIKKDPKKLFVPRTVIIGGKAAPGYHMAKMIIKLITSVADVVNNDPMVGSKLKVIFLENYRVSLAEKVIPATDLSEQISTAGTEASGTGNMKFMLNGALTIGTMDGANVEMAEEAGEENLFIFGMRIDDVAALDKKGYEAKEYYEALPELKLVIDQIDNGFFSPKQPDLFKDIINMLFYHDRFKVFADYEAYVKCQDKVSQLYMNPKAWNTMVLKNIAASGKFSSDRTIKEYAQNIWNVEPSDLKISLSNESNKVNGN
ASSAY_TEXT: Human liver glycogen phosphorylase a enzymatic activity assay (coupled, fluorescent resorufin readout, with and without 10 mM glucose)
Assay type: biochemical
CONDITIONS_USED: human liver glycogen phosphorylase a enzymatic activity assay
Structures can show the parent of a compound that is named as a salt.
Would you kindly interpret these values as log10 of IC50 expressed in µM?

Example results:
MOLECULE | SUBJECT_OF_TEST | log10(IC50)
Cc1cc(C)c(NC(=O)Nc2cc(-c3ccc(F)c(F)c3)sc2C(=O)NC2(C(=O)O)CCCCC2)c(C)c1 | human liver glycogen phosphorylase a (HLGPa) (Homo sapiens, UniProt P06737) | -0.98
Cc1cccc(C)c1NC(=O)Nc1cc2ccccc2cc1C(=O)N[C@@H](CC(C)C)C(=O)O | human liver glycogen phosphorylase a (HLGPa) (Homo sapiens, UniProt P06737) | 0.08
O=C(Nc1ccccc1Cl)Nc1cc2ccccc2cc1C(=O)N[C@@H](Cc1cnc[nH]1)C(=O)O [Example 56, trifluoroacetate] | human liver glycogen phosphorylase a (HLGPa) (Homo sapiens, UniProt P06737) | 0.49
Cc1cccc(C)c1NC(=O)Nc1cc(-c2ccsc2)ccc1C(=O)N[C@H](C(=O)O)C1CCCCC1 | human liver glycogen phosphorylase a (HLGPa) (Homo sapiens, UniProt P06737) | -0.66

# per-item lookup of log10(IC50); items listed below
1. Cc1cccc(Cl)c1NC(=O)Nc1cc2ccccc2cc1C(=O)N[C@@H](CCCCN)C(=O)O [Example 59, trifluoroacetate]
2. Cc1ccccc1NC(=O)Nc1cc2ccccc2cc1C(=O)N[C@H](C(=O)O)[C@@H](C)O
3. Cc1cccc(C)c1NC(=O)Nc1cc(F)c(F)cc1C(=O)N[C@H](C(=O)O)C1CCCCC1
4. Cc1cccc(Cl)c1NC(=O)Nc1ccc(I)cc1C(=O)N[C@@H](CC(=O)O)C(=O)O
5. O=C(Nc1sc(-c2ccc(OC(F)(F)F)cc2)cc1C(=O)N[C@H](C(=O)O)C1CCCCC1)Nc1c(Cl)cc(OC(F)(F)F)cc1Cl

**Result**
[0.48, 0.81, 0.21, 1.24, -1.02]

# per-item lookup of log10(IC50); items listed below
1. Cc1cc(C)c(NC(=O)Nc2cc(-c3ccc(OC(F)(F)F)cc3)sc2C(=O)O)c(C)c1
2. COc1ccc(-c2cc(C(=O)N[C@H](C(=O)O)C3CCCCC3)c(NC(=O)Nc3c(Cl)cc(OC(F)(F)F)cc3Cl)s2)cc1
3. CC[C@H](C)[C@H](NC(=O)c1cc2ccccc2cc1NC(=O)Nc1ccccc1Cl)C(=O)O

**Result**
0.20
-1.57
1.34

# per-item lookup of log10(IC50); items listed below
1. Cc1ccccc1NC(=O)Nc1cc2ccccc2cc1C(=O)N[C@@H](C)C(=O)O
2. COc1cccc(-c2cc(C(=O)O)c(NC(=O)Nc3c(Cl)cccc3Cl)s2)c1
3. CCc1cccc(CC)c1NC(=O)Nc1sc2c(c1C(=O)N[C@@H](CC(=O)O)C(=O)O)CCCC2
4. Cc1cc(C)c(NC(=O)Nc2cc(-c3ccccc3)ccc2C(=O)NC2(C(=O)O)CCCCCCC2)c(C)c1
5. Cc1cccc(Cl)c1NC(=O)Nc1cc(F)c(F)cc1C(=O)N[C@@H](Cc1c[nH]c2ccccc12)C(=O)O [Example 74, trifluoroacetate]
6. Cc1cccc(Cl)c1NC(=O)Nc1cc2ccccc2cc1C(=O)N[C@@H](Cc1ccc(Br)cc1)C(=O)O
7. COC(=O)[C@H](CC(=O)N(C)C)NC(=O)c1ccc(-c2ccc(OC)cc2)cc1NC(=O)Nc1c(C)cc(C)cc1C

**Result**
[1.19, 0.62, 0.66, -2.70, 0.82, 0.90, 1.05]
